target: UniProtKB P14416; assay: Displacement of [3H]spiperone from human recombinant dopamine D2 receptor
Sequence (P14416 whole entry): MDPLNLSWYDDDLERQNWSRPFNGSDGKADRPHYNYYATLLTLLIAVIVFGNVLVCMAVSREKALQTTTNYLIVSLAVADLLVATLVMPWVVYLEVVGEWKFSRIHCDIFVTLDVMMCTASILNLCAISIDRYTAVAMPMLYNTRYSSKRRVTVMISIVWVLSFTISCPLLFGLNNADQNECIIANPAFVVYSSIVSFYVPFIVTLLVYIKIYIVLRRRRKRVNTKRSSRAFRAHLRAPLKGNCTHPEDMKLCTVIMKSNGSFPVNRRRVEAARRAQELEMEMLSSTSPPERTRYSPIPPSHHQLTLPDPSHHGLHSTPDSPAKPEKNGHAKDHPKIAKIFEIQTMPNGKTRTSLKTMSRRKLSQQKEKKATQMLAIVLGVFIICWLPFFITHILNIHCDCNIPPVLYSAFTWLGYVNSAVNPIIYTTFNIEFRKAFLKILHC
Experimental Endpoint: Ki
Answer format: value, then unit.

Example results:
query: Report the value of Ki obtained on UniProtKB P14416 for "CC(C)C(=O)Nc1cccc(C2CCN(CCCC(=O)c3ccc(Cl)cc3)CC2)c1" .
result: 610 nM

query: Report the value of Ki obtained on UniProtKB P14416 for "Cc1ccc(C2CCN(Cc3ccc(Oc4ccc(F)c(F)c4)cc3)CC2)cc1NC(=O)C(C)C" .
result: 400 nM

query: Report the value of Ki obtained on UniProtKB P14416 for "Cc1ccc(NC(=O)C(C)C)cc1C1CCN(Cc2ccc(Oc3ccc(F)c(F)c3)cc2)CC1" .
result: 7400 nM

query: Report the value of Ki obtained on UniProtKB P14416 for "Cc1ccc(Oc2cccc(CN3CCC(c4cccc(NC(=O)C(C)C)c4)CC3)c2)cc1" .
result: 1300 nM

query: Report the value of Ki obtained on UniProtKB P14416 for "COc1ccc(Oc2ccc(CN3CCC(c4cccc(NC(=O)C(C)C)c4)CC3)cc2)cc1" .
result: 1400 nM

***
query: Report the value of Ki obtained on UniProtKB P14416 for "O=C(CCCN1CCC(O)(c2ccc(Cl)cc2)CC1)c1ccc(Cl)cc1" .
result: 190 nM

query: Report the value of Ki obtained on UniProtKB P14416 for "CC(C)C(=O)Nc1cccc(C2CCN(Cc3ccc(Oc4ccc(Cl)cc4)cc3)CC2)c1" .
result: 110 nM

query: Report the value of Ki obtained on UniProtKB P14416 for "COCC1=C(C(=O)OC)[C@H](c2ccc(F)c(F)c2)N(C(=O)NCCCN2CCC(c3cccc(NC(C)=O)c3)CC2)C(=O)N1" .
result: 2800 nM

query: Report the value of Ki obtained on UniProtKB P14416 for "CC(C)C(=O)Nc1cccc(C2CCN(Cc3ccc(Oc4ccccc4)cc3)CC2)c1" .
result: 120 nM
